These entries and their values trace back to patent US20230122344A1.

What IC50 was measured for each of the following?
- System Name: Human M4 (Homo sapiens)
- Sequence (P08173 1-479): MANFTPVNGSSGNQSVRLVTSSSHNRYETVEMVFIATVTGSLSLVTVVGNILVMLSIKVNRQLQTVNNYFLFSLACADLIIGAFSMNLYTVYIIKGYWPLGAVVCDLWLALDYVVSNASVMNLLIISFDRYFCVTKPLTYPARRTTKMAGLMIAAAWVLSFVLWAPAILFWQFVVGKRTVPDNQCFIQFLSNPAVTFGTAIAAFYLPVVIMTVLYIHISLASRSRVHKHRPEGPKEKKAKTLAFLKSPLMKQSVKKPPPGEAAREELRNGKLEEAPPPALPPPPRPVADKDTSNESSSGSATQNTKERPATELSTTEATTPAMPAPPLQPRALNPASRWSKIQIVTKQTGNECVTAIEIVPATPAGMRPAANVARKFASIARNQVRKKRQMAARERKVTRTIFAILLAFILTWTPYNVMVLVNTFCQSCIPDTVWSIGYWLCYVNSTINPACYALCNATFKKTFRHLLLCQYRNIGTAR
- Assay Remarks: mAChR M4 cell-based functional assay (calcium flux, antagonism of EC80 acetylcholine response)
- Conditions Used: M4/Gqi5/CHO-K1 cells; decrease of response elicited by EC80 acetylcholine
# unit: nM | format: bare number

input: Need IC50 of Cc1ccc(F)cc1-c1nnc(N[C@H]2C[C@@H]3CN(CC4CCOCC4)C[C@@H]3C2)cc1C [compound 12] , thanks.
output: 2.55

input: Would you kindly repeat that for Fc1cc(F)c(F)c(-c2nnc(N[C@H]3C[C@@H]4CN(C[C@H]5COCCO5)C[C@@H]4C3)cc2C(F)F)c1 [compound 57] ?
output: 15.5

input: Would you kindly repeat that for [2H]C([2H])(C1CCOCC1)N1C[C@H]2C[C@H](Nc3nnc(-c4cc(F)ccc4F)c(C)c3C(F)(F)F)C[C@H]2C1 [compound 75] ?
output: 20.9

input: Would you kindly repeat that for Cc1ccc(C(F)(F)F)cc1-c1cc(C(F)F)c(N[C@H]2C[C@@H]3CN(CC4CCOCC4)C[C@@H]3C2)nn1 [compound 82] ?
output: 49

input: Would you kindly repeat that for [2H]C([2H])(C1CCOCC1)N1C[C@H]2C[C@H](Nc3nnc(-c4cc(F)ccc4C)cc3C)C[C@H]2C1 [compound 20] ?
output: 0.54

input: Would you kindly repeat that for Cc1cc(N[C@H]2C[C@@H]3CN(CC4CCOCC4)C[C@@H]3C2)nnc1-c1ccc2nn(C)cc2c1 [compound 15] ?
output: 1.1

input: Would you kindly repeat that for [2H]C([2H])(C1CCOCC1)N1C[C@H]2C[C@H](Nc3nnc(-c4cc(F)cc(F)c4F)c(C4CC4)c3C(F)(F)F)C[C@H]2C1 [compound 77] ?
output: 83.5

input: Would you kindly repeat that for [2H]C([2H])(C1CCOCC1)N1C[C@H]2C[C@H](Nc3cc(C)c(-c4cc(F)cc(F)c4F)nn3)C[C@H]2C1 [compound 37] ?
output: 0.69

input: Would you kindly repeat that for [2H]C([2H])(C1CCOCC1)N1C[C@H]2C[C@H](Nc3nnc(-c4cccc(F)c4)c(C)c3C)C[C@H]2C1 [compound 62] ?
output: 0.71

input: Would you kindly repeat that for [2H]C([2H])(C1CCOCC1)N1C[C@H]2C[C@H](Nc3cc(C)c(-c4ccc5nn(C)cc5c4)nn3)C[C@H]2C1 [compound 19] ?
output: 1.62

input: Would you kindly repeat that for CC(c1ccccn1)N1C[C@H]2C[C@H](Nc3cc(C(F)F)c(-c4cc(F)cc(F)c4F)nn3)C[C@H]2C1 (stereo partly shown) [compound 50] ?
output: 34.8

input: Would you kindly repeat that for [2H]C([2H])(C1CCOCC1)N1C[C@H]2C[C@H](Nc3nnc(-c4ccccc4F)c(C)c3C)C[C@H]2C1 [compound 61] ?
output: 0.52

input: Would you kindly repeat that for Cc1c(-c2cc(F)ccc2F)nnc(N[C@H]2C[C@@H]3CN(C[C@H]4CC5CCC4O5)C[C@@H]3C2)c1C#N (stereo partly shown) [compound 66] ?
output: 17.9
